The measurements presented in this section are drawn from patent US20230265187A1.

Biological target: T1, human TIGIT on Jurkat cells (TIGIT/NFAT reporter Jurkat cells, BPS Bioscience #60538); Promega TIGIT Effector … (human, UniProt Q495A1 22-244)
T1 sequence (looked up): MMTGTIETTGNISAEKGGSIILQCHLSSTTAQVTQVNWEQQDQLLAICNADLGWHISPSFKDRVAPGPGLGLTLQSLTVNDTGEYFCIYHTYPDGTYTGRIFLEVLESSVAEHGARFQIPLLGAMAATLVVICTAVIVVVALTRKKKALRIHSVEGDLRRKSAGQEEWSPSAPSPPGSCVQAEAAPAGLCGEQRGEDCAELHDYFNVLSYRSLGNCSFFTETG
Experiment: cell-based or functional assay
Consider the following binders and their measured max. signal (% of 22G2) readings.

{"Binder": "43645p1.G5 (scFv, V domains shown) VH: EVQLLESGGGLVQPGGSLRLSCAASGFTFSSYYMSWVRQAPGKGLEWVSAISIFSGDSTYYADSVKGRFTISRDNSKNTLYLQMNSLRAEDTAVYYCAKSHTVLQYGMDVWGQGTTVTVSS VL: QSVLTQPPSASGTPGQRVTISCSGVTSNIRNYYVSWYQQLPGTAPKLLIYGNDQRPSGVPDRFSGSKSGTSASLAISGLQSEDEADYYCGTWDNTLNAWVFGGGTKLTVL", "max. signal (% of 22G2)": "99 % of 22G2"}
{"Binder": "43586p2.F11 (scFv, V domains shown) VH: EVQLLELGGSLVQPGGSLRLSCAASGFTFDDYVMSWVRQAPGKGLEWVSLINWNGDKTYYADSVKGRFTISRDNSKNTLYLQMNSLRAEDTAVYYCARHWIVFQYGLDVWGQGTTVTVSS VL: QSVLTQPLSASGTPGQKVTISCSGVSSNIEIKYVSWYQQLPGTAPKLLIYNSHQRPSGVPDRFSGSKSGTSASLAISGLQSEDEADYYCTSWDDRLKSWVFGGGTKLTVL", "max. signal (% of 22G2)": "104 % of 22G2"}
{"Binder": "43645p1.H10 (scFv, V domains shown) VH: EVQLLESGGGLVQAGGSLRLSCAASGFTFDDYVMTWVRQAPGKGLEWVSLINWSGDRTYYADSVKGRFTISRDNSKNTLYLQMNSLRAEDTAVYYCVKHNLNYYYGMDVWGQGTTVTVSS VL: QSVLTQPPSVSGTPGQRVTISCSGTISNVGNKYVSWYQQVPGTAPKLLIDYNQRPSGVPDRFSGSQSGTSASLTISGLQSEDEADYYCATWDDSLKGWVFGGGTKLTVL", "max. signal (% of 22G2)": "109 % of 22G2"}
